Values compiled from ChEMBL document CHEMBL1140063.

Biological target: UniProt:P30542
Assay: Displacement of [3H]DPCPX from human adenosine A1 receptor expressed in CHO cells at 10 uM
Format: cell-based
observation type: Activity (%)

Nc1scc(CN2CCN(c3ccc(C(F)(F)F)cc3)CC2)c1C(=O)c1ccc(Cl)cc1 0
Nc1scc(CN2CCN(c3ccc(F)cc3)CC2)c1C(=O)c1ccc(Cl)cc1 0
Cc1ccc(N2CCN(Cc3csc(N)c3C(=O)c3ccc(Cl)cc3)CC2)cc1 0

----------
Target: Adenosine receptor A1 (Homo sapiens)
Assay: Displacement of [3H]CCPA from human adenosine A1 receptor expressed in CHO cells assessed for per milligram of protein
Type: cell-based
observation type: Bmax (fmol)

Nc1scc(CN2CCN(c3ccc(C(F)(F)F)cc3)CC2)c1C(=O)c1ccc(Cl)cc1 3990
Nc1scc(CN2CCN(c3ccc(F)cc3)CC2)c1C(=O)c1ccc(Cl)cc1 3470
Nc1scc(CN2CCN(c3ccc(Cl)cc3)CC2)c1C(=O)c1ccc(Cl)cc1 3630

----------
Biological target: Adenosine receptor A1 (Homo sapiens) (UniProt P30542)
Sequence (P30542 whole entry): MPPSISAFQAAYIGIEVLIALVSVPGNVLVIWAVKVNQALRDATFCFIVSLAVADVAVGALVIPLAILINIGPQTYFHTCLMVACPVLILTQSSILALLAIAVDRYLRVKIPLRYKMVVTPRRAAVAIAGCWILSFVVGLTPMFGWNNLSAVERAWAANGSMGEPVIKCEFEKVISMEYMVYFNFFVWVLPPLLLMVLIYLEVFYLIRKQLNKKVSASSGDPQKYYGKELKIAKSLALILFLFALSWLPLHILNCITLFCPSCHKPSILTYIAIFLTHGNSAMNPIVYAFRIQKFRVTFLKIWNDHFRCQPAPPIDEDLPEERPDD
Test: Activity at human recombinant adenosine A1 receptor expressed in CHO cells assessed as cAMP level at 10 uM
Type: functional, cell-based
observation type: Activity (%)

N#Cc1ccc(N2CCN(Cc3csc(N)c3C(=O)c3ccc(Cl)cc3)CC2)cc1 72
CN1CCN(Cc2csc(N)c2C(=O)c2ccc(Cl)cc2)CC1 16
Nc1scc(CN2CCN(c3ncccn3)CC2)c1C(=O)c1ccc(Cl)cc1 69

1. Cc1sc(N)c(C(=O)c2cccc(C(F)(F)F)c2)c1C
2. Nc1scc(CN2CCN(c3ccc4c(c3)OCO4)CC2)c1C(=O)c1ccc(Cl)cc1
Prompt line: For this pair, 1 and 2 , which shows a numerically higher Activity? Give the label of your selection.
Response line: 1
(1: 57%, 2: 34%)

----------
Target: Adenosine receptor A3 (Homo sapiens) (UniProt P0DMS8)
Sequence (P0DMS8 whole entry): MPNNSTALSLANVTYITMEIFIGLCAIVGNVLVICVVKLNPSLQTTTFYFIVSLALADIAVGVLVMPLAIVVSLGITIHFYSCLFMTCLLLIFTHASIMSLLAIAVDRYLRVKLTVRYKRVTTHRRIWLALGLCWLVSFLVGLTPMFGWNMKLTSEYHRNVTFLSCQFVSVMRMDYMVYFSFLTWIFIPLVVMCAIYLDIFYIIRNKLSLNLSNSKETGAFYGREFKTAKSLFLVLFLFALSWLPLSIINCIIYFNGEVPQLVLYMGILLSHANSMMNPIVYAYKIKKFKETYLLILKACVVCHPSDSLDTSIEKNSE
Experiment: Displacement of [3H]MRE3008F20 from human adenosine A3 receptor expressed in CHO cells at 10 uM
Format: cell-based
observation type: Activity (%)

CN1CCN(Cc2csc(N)c2C(=O)c2ccc(Cl)cc2)CC1 0

I. Cc1sc(N)c(C(=O)c2cccc(C(F)(F)F)c2)c1C
II. Nc1scc(CN2CCN(c3ccc(Cl)cc3)CC2)c1C(=O)c1ccc(Cl)cc1
Prompt line: For this pair, I and II , which shows a numerically higher Activity? Give the label of your selection.
Response line: I

----------
Target: Adenosine receptor A1 (Homo sapiens, UniProt P30542)
Test: Displacement of [3H]DPCPX from human adenosine A1 receptor expressed in CHO cells
Type: cell-based
observation type: Kd (nM)

Nc1scc(CN2CCN(c3ccc(F)cc3)CC2)c1C(=O)c1ccc(Cl)cc1 1.8
Cc1ccc(N2CCN(Cc3csc(N)c3C(=O)c3ccc(Cl)cc3)CC2)cc1 1.7
Nc1scc(CN2CCN(c3ncccn3)CC2)c1C(=O)c1ccc(Cl)cc1 1.7
Nc1scc(CN2CCN(c3ccccn3)CC2)c1C(=O)c1ccc(Cl)cc1 1.7
N#Cc1ccc(N2CCN(Cc3csc(N)c3C(=O)c3ccc(Cl)cc3)CC2)cc1 1.8
Nc1scc(CN2CCN(Cc3ccccc3)CC2)c1C(=O)c1ccc(Cl)cc1 1.7
Nc1scc(CN2CCN(c3ccc(Cl)cc3)CC2)c1C(=O)c1ccc(Cl)cc1 1.8
CN1CCN(Cc2csc(N)c2C(=O)c2ccc(Cl)cc2)CC1 1.7
Nc1scc(CN2CCN(c3ccccc3)CC2)c1C(=O)c1ccc(Cl)cc1 1.9
Nc1scc(CN2CCN(c3ccc(C(F)(F)F)cc3)CC2)c1C(=O)c1ccc(Cl)cc1 1.9
Nc1scc(CN2CCN(c3ccc4c(c3)OCO4)CC2)c1C(=O)c1ccc(Cl)cc1 1.9
Nc1scc(CN2CCN(C3CCCCC3)CC2)c1C(=O)c1ccc(Cl)cc1 1.9

----------
Biological target: Adenosine receptor A2a (Homo sapiens)
Assay: Displacement of [3H]ZM241385 from human adenosine A2A receptor expressed in CHO cells at 10 uM
Format: cell-based
observation type: Activity (%)

Nc1scc(CN2CCN(c3ccc(C(F)(F)F)cc3)CC2)c1C(=O)c1ccc(Cl)cc1 0

P. Nc1scc(CN2CCN(c3ccc(Cl)cc3)CC2)c1C(=O)c1ccc(Cl)cc1
Q. Nc1scc(CN2CCN(c3ccccc3)CC2)c1C(=O)c1ccc(Cl)cc1
Prompt line: For this pair, P and Q , which shows a numerically higher Activity? Give the label of your selection.
Response line: P

----------
Biological target: Adenosine receptor A1 (Homo sapiens) (UniProt P30542)
Experiment: Displacement of [3H]DPCPX from human adenosine A1 receptor expressed in CHO cells relative to untreated control
Format: cell-based
observation type: Activity

Nc1scc(CN2CCN(c3ccc(Cl)cc3)CC2)c1C(=O)c1ccc(Cl)cc1 1.1
Nc1scc(CN2CCN(c3ccc(C(F)(F)F)cc3)CC2)c1C(=O)c1ccc(Cl)cc1 1.1
Nc1scc(CN2CCN(c3ccccn3)CC2)c1C(=O)c1ccc(Cl)cc1 0.9
CN1CCN(Cc2csc(N)c2C(=O)c2ccc(Cl)cc2)CC1 0.9
Nc1scc(CN2CCN(Cc3ccccc3)CC2)c1C(=O)c1ccc(Cl)cc1 1
Nc1scc(CN2CCN(c3ncccn3)CC2)c1C(=O)c1ccc(Cl)cc1 1
Nc1scc(CN2CCN(c3ccc4c(c3)OCO4)CC2)c1C(=O)c1ccc(Cl)cc1 0.9
Nc1scc(CN2CCN(C3CCCCC3)CC2)c1C(=O)c1ccc(Cl)cc1 0.9
Nc1scc(CN2CCN(c3ccc(F)cc3)CC2)c1C(=O)c1ccc(Cl)cc1 1.1
N#Cc1ccc(N2CCN(Cc3csc(N)c3C(=O)c3ccc(Cl)cc3)CC2)cc1 1
Nc1scc(CN2CCN(c3ccccc3)CC2)c1C(=O)c1ccc(Cl)cc1 1
Cc1ccc(N2CCN(Cc3csc(N)c3C(=O)c3ccc(Cl)cc3)CC2)cc1 0.9

----------
Target: UniProt:P30542
Test: Displacement of [3H]CCPA from human adenosine A1 receptor expressed in CHO cells assessed for per milligram of protein
Assay type: cell-based
observation type: Bmax (fmol)

Record excerpt, results attached:
Nc1scc(CN2CCN(c3ccccc3)CC2)c1C(=O)c1ccc(Cl)cc1 3370
CN1CCN(Cc2csc(N)c2C(=O)c2ccc(Cl)cc2)CC1 570
Cc1sc(N)c(C(=O)c2cccc(C(F)(F)F)c2)c1C 673
Nc1scc(CN2CCN(Cc3ccccc3)CC2)c1C(=O)c1ccc(Cl)cc1 3160
Nc1scc(CN2CCN(C3CCCCC3)CC2)c1C(=O)c1ccc(Cl)cc1 622
Nc1scc(CN2CCN(c3ccccn3)CC2)c1C(=O)c1ccc(Cl)cc1 1810

I. Cc1ccc(N2CCN(Cc3csc(N)c3C(=O)c3ccc(Cl)cc3)CC2)cc1
II. Nc1scc(CN2CCN(c3ccc4c(c3)OCO4)CC2)c1C(=O)c1ccc(Cl)cc1
Prompt line: Look at I and II . Which one has the lower recorded Bmax number? Give the label of your selection.
Response line: II

A. N#Cc1ccc(N2CCN(Cc3csc(N)c3C(=O)c3ccc(Cl)cc3)CC2)cc1
B. Nc1scc(CN2CCN(c3ncccn3)CC2)c1C(=O)c1ccc(Cl)cc1
Prompt line: Look at A and B . Which one has the lower recorded Bmax number? Give the label of your selection.
Response line: B

----------
Target: Adenosine receptor A1 (Rattus norvegicus, UniProt P25099)
Sequence (P25099 whole entry): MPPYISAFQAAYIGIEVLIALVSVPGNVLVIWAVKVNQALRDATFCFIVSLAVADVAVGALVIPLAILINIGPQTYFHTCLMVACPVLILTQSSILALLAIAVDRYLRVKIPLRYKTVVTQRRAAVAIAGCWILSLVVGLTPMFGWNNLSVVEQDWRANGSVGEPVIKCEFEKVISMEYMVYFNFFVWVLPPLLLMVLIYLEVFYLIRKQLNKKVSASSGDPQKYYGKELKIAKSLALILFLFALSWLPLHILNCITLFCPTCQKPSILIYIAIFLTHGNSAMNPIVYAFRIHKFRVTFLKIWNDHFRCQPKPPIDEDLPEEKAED
observation type: pKi
A value of pKi is the negative decimal logarithm of a concentration given in moles per litre.

Prompt line: Fill in reported pKi for this entry: Cc1sc(N)c(C(=O)c2cccc(C(F)(F)F)c2)c1C
Response line: 4.96

----------
Biological target: UniProt P30542
Experiment: Activity at human recombinant adenosine A1 receptor expressed in CHO cells assessed as cAMP level at 0.01 uM
Assay type: functional, cell-based
observation type: Activity (%)

Record excerpt, results attached:
Cc1ccc(N2CCN(Cc3csc(N)c3C(=O)c3ccc(Cl)cc3)CC2)cc1 10
Nc1scc(CN2CCN(c3ccccn3)CC2)c1C(=O)c1ccc(Cl)cc1 9
Nc1scc(CN2CCN(c3ccc(Cl)cc3)CC2)c1C(=O)c1ccc(Cl)cc1 10
Nc1scc(CN2CCN(c3ccccc3)CC2)c1C(=O)c1ccc(Cl)cc1 4
CN1CCN(Cc2csc(N)c2C(=O)c2ccc(Cl)cc2)CC1 3

P. Nc1scc(CN2CCN(c3ncccn3)CC2)c1C(=O)c1ccc(Cl)cc1
Q. Nc1scc(CN2CCN(Cc3ccccc3)CC2)c1C(=O)c1ccc(Cl)cc1
R. Nc1scc(CN2CCN(C3CCCCC3)CC2)c1C(=O)c1ccc(Cl)cc1
Prompt line: Ascending sort, Activity. I would appreciate it if you listed the labels in the requested order.
Response line: Q, R, P
(Q: 3%, R: 5%, P: 9%)
